- Assayed system: Acetylcholinesterase (Homo sapiens)
- Protocol: Acetylcholinesterase (AChE) small molecule antagonists: enzyme-based qHTS assay with human liver microsomes (AID 1347399); also: nearly all actives have a fitted effect of over 60% in size
- Condition info: qHTS inhibition; series mostly up to 115 µM
The source made the active and inactive calls. Calls follow the shape of the full dose curve.
Quantity name: outcome

Sample answers from the record:
| Given smiles | outcome |
| --- | --- |
| C=COC(C)=O | inactive |
| Cl/C=C\C[N+]12CN3CN(CN(C3)C1)C2 | inactive |
| CCCN(CC1CC1)c1c([N+](=O)[O-])cc(C(F)(F)F)cc1[N+](=O)[O-] | inactive |
| O=C(CBr)Nc1ccc(Cl)cc1C(=O)c1ccccc1F | inactive |

Enquiry: Recorded outcome for "Nc1ccc(N=Nc2ccc(-c3ccc(N=Nc4c(S(=O)(=O)O)cc5cc(S(=O)(=O)O)c(N=Nc6ccccc6)c(O)c5c4N)cc3)cc2)c(N)c1" , please?
Return: inactive

Enquiry: Recorded outcome for "C[C@H]1CNCCc2ccc(Cl)cc21" , please?
Return: inactive

Enquiry: Recorded outcome for "Sc1ccccc1Cl" , please?
Return: inactive
